Attribution: patent US20110269700A1

measured-target: human sodium glucose cotransporter 2 (Homo sapiens, UniProt P31639)
Construct: expressed in transfected cells; host or cells: CHO-K1 (ATCC CCL-61) or HEK293 (ATCC CRL-1573), stably transfected with pZeoSV
Sequence (P31639 1-672): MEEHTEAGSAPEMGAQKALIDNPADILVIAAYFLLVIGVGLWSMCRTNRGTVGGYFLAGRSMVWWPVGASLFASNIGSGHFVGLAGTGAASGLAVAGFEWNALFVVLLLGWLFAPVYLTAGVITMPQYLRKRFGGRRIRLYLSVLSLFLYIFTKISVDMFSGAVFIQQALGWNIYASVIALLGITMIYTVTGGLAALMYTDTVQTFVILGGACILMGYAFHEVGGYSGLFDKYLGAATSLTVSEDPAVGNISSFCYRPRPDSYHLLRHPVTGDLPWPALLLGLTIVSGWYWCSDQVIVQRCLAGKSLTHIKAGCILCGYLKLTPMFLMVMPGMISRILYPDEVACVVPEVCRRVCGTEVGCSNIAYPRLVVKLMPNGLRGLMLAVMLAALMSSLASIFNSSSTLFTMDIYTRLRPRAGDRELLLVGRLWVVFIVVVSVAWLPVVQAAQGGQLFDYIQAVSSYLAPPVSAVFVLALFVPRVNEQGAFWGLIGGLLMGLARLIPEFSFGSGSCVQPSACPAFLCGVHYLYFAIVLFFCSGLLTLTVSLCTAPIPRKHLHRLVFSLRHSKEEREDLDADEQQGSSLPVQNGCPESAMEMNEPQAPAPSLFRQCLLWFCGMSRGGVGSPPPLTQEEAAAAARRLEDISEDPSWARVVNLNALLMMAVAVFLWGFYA
test-summary: SGLT2 assay: 14C-AMG uptake in CHO-hSGLT2 or HEK-hSGLT2 cells
Type: cell-based
condition-info: n = 1-4
endpoint: IC50 (nM)
I only need the number, in nM, no unit after it.

Ask: For the record `CCOc1ccc(Cc2cc([C@@H]3O[C@H](CN(C)c4cccc(C(=O)N5CCCC5)c4)[C@@H](O)[C@H](O)[C@H]3O)ccc2Cl)cc1` , what value of IC50 is listed for human sodium glucose cotransporter 2 (Homo sapiens, UniProt P31639)?
Reply: 10

Ask: Record: `CCOc1ccc(Cc2cc([C@@H]3O[C@H](Cn4cc(C(N)=O)nn4)[C@@H](O)[C@H](O)[C@H]3O)ccc2Cl)cc1`
Reply: 81

Ask: Record: `CCOc1ccc(Cc2cc([C@@H]3O[C@H](CNc4cccc(NC(C)=O)c4)[C@@H](O)[C@H](O)[C@H]3O)ccc2Cl)cc1`
Reply: 23

Ask: Record: `CCOc1ccc(Cc2cc([C@@H]3O[C@H](Cn4nncc4CO)[C@@H](O)[C@H](O)[C@H]3O)ccc2Cl)cc1`
Reply: 94

Ask: Record: `CCOc1ccc(Cc2cc([C@@H]3O[C@H](Cn4cc(CO)nn4)[C@@H](O)[C@H](O)[C@H]3O)ccc2Cl)cc1`
Reply: 50

----------
measured-target: human SGLT1 (Homo sapiens)
Construct: expressed in transfected cells; host or cells: CHO-K1 or HEK293
Sequence (P13866 whole entry): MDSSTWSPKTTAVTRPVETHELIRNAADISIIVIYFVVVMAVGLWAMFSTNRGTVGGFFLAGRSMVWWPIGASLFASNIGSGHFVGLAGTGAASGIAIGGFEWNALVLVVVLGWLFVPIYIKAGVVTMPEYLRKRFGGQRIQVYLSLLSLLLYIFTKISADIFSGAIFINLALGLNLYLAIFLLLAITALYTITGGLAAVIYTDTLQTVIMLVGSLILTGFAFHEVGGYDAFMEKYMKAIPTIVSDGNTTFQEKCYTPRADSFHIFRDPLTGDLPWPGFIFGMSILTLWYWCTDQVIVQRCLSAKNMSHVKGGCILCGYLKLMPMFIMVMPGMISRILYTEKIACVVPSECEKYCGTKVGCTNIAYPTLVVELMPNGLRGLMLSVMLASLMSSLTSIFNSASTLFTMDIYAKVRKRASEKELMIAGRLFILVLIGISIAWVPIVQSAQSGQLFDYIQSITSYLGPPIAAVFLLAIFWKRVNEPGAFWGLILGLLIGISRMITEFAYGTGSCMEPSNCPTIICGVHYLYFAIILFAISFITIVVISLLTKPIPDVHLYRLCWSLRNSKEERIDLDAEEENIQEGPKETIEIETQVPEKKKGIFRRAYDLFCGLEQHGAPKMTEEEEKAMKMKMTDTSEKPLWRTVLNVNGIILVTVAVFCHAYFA
test-summary: SGLT1 assay: 14C-AMG uptake in CHO-K1 or HEK293 cells expressing hSGLT1
Assay type: cell-based
condition-info: n = 1-4
Experimental: To determine human SGLT1 inhibitory activity, an analogous test was set up in which the cDNA for hSGLTI (Genbank Ace. No. NM000343) instead of hSGLT2 cDNA is expressed in CHO-K1 or HEK293 cells. The uptake assay buffer in the case of the hSGLT1 assay contains 10 mM HEPES, 5 mM Tris, 140 mM NaCl, 2 mM KCl, 1 mM CaCl2, and 1 mM MgCl2, pH 7.4 containing 0.5 mM of α-methyl-D-glucopyranoside (AMG), 10 μM of [^14C]-α-methyl-D-glucopyranoside and different inhibitor concentrations.
Record form. Attribute: IC50. Fill in for each entry.

Ask: I have this molecule here, `CCOc1ccc(Cc2cc([C@@H]3O[C@H](CNc4cccc(NC(C)=O)c4)[C@@H](O)[C@H](O)[C@H]3O)ccc2Cl)cc1` , and I need its recorded IC50.
Reply: 1500 nM

Ask: Record: `CCOc1ccc(Cc2cc([C@@H]3O[C@H](Cn4cc(CO)nn4)[C@@H](O)[C@H](O)[C@H]3O)ccc2Cl)cc1`
Reply: 32000 nM

Ask: Record: `CCOc1ccc(Cc2cc([C@@H]3O[C@H](Cn4nncc4CO)[C@@H](O)[C@H](O)[C@H]3O)ccc2Cl)cc1`
Reply: > 10000 nM

Ask: Record: `CCOc1ccc(Cc2cc([C@@H]3O[C@H](CN(C)c4cccc(C(=O)N5CCCC5)c4)[C@@H](O)[C@H](O)[C@H]3O)ccc2Cl)cc1`
Reply: 280 nM
